Each recorded value in this set is attributed to PubChem BioAssay (NCI).

Overview of recorded growth for various compounds
System: MALME-3M melanoma
Assay: NCI-60 one-dose screen, 48 h (100 = growth as untreated, 0 = no growth, -100 = all killed)
Settings: 10 µM unless noted
The panel holds about 83,000 compounds, 20% with a hit somewhere; the sample as a whole holds those more often.
API: value field is a number in %; no unit string.

The following compounds have reported results that may help.
compound | unit name | growth
NC1N=C(SCC(=O)N2CCN(c3cc4c(cc3F)c(=O)c(C(=O)O)cn4C3CC3)CC2)NC(=O)/C1=C/c1ccc(Cl)cc1 (stereo not given) | % | 108
NC(N)=Nc1nc2ccccc2o1 | % | 119
O=c1[nH]c(Nc2ccc(S(=O)(=O)O)cc2)nc2nc(Nc3ccc(NC(=S)Nc4ccccc4)cc3)nc(-c3ccc(O)cc3O)c12 | % | 98.8
O=C(Nc1ccncc1)C(=O)c1cn(S(=O)(=O)c2ccc(Oc3ccccc3)cc2)c2ccccc12 | % | 84.9
COc1ccc(-c2nc3sc(-c4cc(OC)c(OC)c(OC)c4)nn3c2/C=C2/C(=O)Nc3ccc(F)cc32)cc1 | % | -48.3

**Q:** Name the recorded growth for C=CCSc1n[nH]c(-c2cccs2)n1 .
**A:** 110

**Q:** Dear colleague, I am looking for the recorded growth of the following compound: COc1cc2c(c(OC)c1OC)-c1ccc(N)c(=O)cc1[C@@H](NC(C)=O)CC2
**A:** 58.4

**Q:** growth lookup needed for COc1ccc(Nc2ncccc2C(=O)NCc2cn(Cc3cccc(Oc4ccccc4)c3)nn2)c(OC)c1 , thanks.
**A:** 46.4

**Q:** # growth lookup, item CC(=O)OC[C@]12CC[C@H]3[C@@H](C[C@H]4O[C@]45CC=CC(=O)[C@]35C)[C@]1(O)CC[C@@]2(O)[C@@](C)(O)C1CC(C)=C(C)C(=O)O1 (stereo not given in full)
**A:** -58.4

**Q:** Request the reported growth associated with CC(=O)Nc1ccc(/C=C/C(=O)c2ccccc2)cc1
**A:** 120

**Q:** Consider the compound C=C(C)[C@@H]1C[C@@H]2Cc3cc(Cl)ccc3N1O2 and give its measured growth.
**A:** 91.4

**Q:** What value of growth has been reported for the following compound? CC(C)c1ccc2occ(C=C3C(=O)NC(=O)NC3=O)c(=O)c2c1
**A:** 93.7
